The measurements presented in this section are drawn from patent US20230105984A1.

# System: MCP1/CCL2 secretion
# PROCEDURE SUMMARY: MCP1/CCL2 secretion by primary human hepatocytes co-treated with sFA+TNF-α, ELISA after 24h
# Format: cell-based
# PARTICULARS: Results 1, donors 1 and 2; AA compositions at 20X
READOUT: MCP1 level / MCP1 secretion compared to baseline (sFA+TNF-α)

- O=C(O)c1cc(F)c2nc(N3C4CC[C@H]3C[C@H](OCc3c(-c5ccccc5OC(F)(F)F)noc3C3CC3)C4)sc2c1 [Tropifexor]: slight increase
- O=C(O)c1ccnc(N2CC(O)(c3ccc(OCc4c(-c5c(Cl)cccc5Cl)noc4C4CC4)cc3Cl)C2)c1 [Cilofexor]: slight increase
